# assayComment: Phase I study of DGJ, pharmacokinetics in plasma and urine
# Assay type: in vivo, human
# measurementConditions: 150 mg b.i.d. oral, Day 1, plasma
resultType: Cmax
Answer with the figure and its unit, nothing else.

# Cmax lookup, item OC[C@H]1NC[C@H](O)[C@@H](O)[C@H]1O
11.3 µM

====

# assayComment: Phase I study of DGJ, pharmacokinetics in plasma and urine
# Type: in vivo, human
# measurementConditions: 150 mg b.i.d. oral, Day 7, plasma
resultType: Cmax (µM)
Just the number please, in µM, no unit attached.

Need Cmax of OC[C@H]1NC[C@H](O)[C@@H](O)[C@H]1O [DGJ, 1-deoxygalactonojirimycin] , thanks.
10.8
